# key: entry, value: pKd
Molecular target: T1, recombinant hSIRPg-His (Sino Biologicals, reference 11828-H08H) (human, UniProt Q9P1W8 29-360)
T1 construct: also called human SIRPg-His; not shown: His tag
T1 sequence (Q9P1W8 29-360 limits assumed): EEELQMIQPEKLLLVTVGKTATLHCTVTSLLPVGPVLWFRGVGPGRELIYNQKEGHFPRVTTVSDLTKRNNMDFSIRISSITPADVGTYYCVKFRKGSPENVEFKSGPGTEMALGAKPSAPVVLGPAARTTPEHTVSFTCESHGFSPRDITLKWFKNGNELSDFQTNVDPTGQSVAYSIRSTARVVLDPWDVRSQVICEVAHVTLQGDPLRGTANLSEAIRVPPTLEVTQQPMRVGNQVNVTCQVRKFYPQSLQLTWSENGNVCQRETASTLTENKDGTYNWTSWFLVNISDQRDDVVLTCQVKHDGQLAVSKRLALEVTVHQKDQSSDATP
Assay: BLI (Blitz); SIRPg-His on Ni-NTA biosensor, antibody at 10 ug/ml or 20 ug/ml (Example 9) [B, table A]
Experimental: FIG. 8. (A) Affinity analysis by Blitz of anti-SIRP antibodies on human SIRPg recombinant protein. SIRPg-His recombinant protein was immobilized onto a NINTA biosensor and the indicated antibodies were added at 10 μg/ml. […] Method: This method was performed with a Blitz (Forte Bio; USA; reference C22-2 No 61010-1). […] Analysis of data was made with the Blitz pro 1.2 software, which calculated association constant (ka) and dissociation constant (kd) and determined the affinity constant KD […].
Please report pKd as the negative decimal logarithm of the molar concentration, giving only the number.

Example results:
## Task Could you tell me which pKd is on file for HALA (antibody, human IgG4 S228P, kappa, V domains shown, humanized 18D5 variant; also called humanized 18D5 variant HALA) VH: EVQLVQSGAEVKKPGESLRISCKASGYTFTSYWVHWVRQMPGKGLEWIGNIDPSDSDTHYNQKFKDHVTLSVDKSISTAYLQLSSLKASDTAMYYCVRGGTGTMAWFAYWGQGTLVTVSS VL: DVVMTQSPLSLPVTLGQPASISCRSSQSLVHSYGNTYLYWYQQRPGQSPRLLIYRVSNRFSGVPDRFSGSGSGTDFTLKISRVEAEDVGVYFCFQGTHVPYTFGGGTKVEIKR ?
## Result 7.34

## Task Requested field: pKd. Item: HFLA (antibody, human IgG4 S228P, kappa, V domains shown, humanized 18D5 variant) VH: EVQLVQSGAEVKKPGESLRISCKASGYSFTSYWVHWVRQMPGKGLEWMGNIDPSDSDTHYSPSFQGHVTLSVDKSISTAYLQLSSLKASDTAMYYCVRGGTGTMAYFAYWGQGTLVTVSS VL: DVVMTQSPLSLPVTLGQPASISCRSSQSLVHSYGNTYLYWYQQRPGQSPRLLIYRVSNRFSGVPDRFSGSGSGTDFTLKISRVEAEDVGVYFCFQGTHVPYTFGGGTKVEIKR
## Result 7.32

## Task Requested read-out: pKd. Entry: Kwar23 (antibody, V domains shown) VH: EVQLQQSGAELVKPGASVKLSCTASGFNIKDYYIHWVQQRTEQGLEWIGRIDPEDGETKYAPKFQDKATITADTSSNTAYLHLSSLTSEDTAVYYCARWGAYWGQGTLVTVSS VL: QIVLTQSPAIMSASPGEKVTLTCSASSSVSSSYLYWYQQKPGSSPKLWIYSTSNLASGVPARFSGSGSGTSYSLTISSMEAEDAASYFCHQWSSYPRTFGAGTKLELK
## Result 8.67

Let us move to another entry and its pKd.
## Task Need pKd of HEFLA (antibody, human IgG4 S228P, kappa, V domains shown, humanized 18D5 variant) VH: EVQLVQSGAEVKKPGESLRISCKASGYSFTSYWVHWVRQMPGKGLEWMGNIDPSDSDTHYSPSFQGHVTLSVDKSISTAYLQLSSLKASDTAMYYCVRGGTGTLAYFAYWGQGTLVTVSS VL: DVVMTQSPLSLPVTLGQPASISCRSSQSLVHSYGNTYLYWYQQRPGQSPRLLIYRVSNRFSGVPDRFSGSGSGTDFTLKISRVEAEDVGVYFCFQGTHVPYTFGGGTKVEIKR , thanks.
## Result 7.28
